These measurements were taken from ChEMBL document CHEMBL1147331.

test-name: Cytotoxicity against human ZR-75-1 cells after 3 days by sulforhodamine B assay
Assay type: cell-based
details: read-out: ED50
quantity-measured: CC50 at 72 h

>>> result("C=C[C@H]1CN2CC[C@H]1C[C@H]2[C@H](O)c1ccnc2ccc(OC)cc12 [QUININE]")
"> 20 µg/mL"
>>> result("COc1ccc2cc1Oc1ccc(cc1)C[C@H]1c3c(cc4c(c3Oc3cc5c(cc3OC)CCN(C)[C@@H]5C2)OCO4)CCN1C [CEPHARANTHINE]")
"1 µg/mL"
>>> result("COc1ccc2cc1Oc1ccc(cc1)C[C@H]1c3c(cc(OC)c(OC)c3Oc3cc4c(cc3OC)CCN[C@@H]4C2)CCN1C")
"1.9 µg/mL"

Now consider the entry below.
Form field: reported CC50 at 72 h of OC(c1cc(C(F)(F)F)nc2c(C(F)(F)F)cccc12)C1CCCCN1 (centres undefined) [MEFLOQUINE] 1.2 µg/mL
